Biological target: proteasome β1 subunit (Homo sapiens)
Experiment: Competition assay versus MVB003 in HEK293T lysate, β1 band
Type: biochemical
Could you please report measured pIC50 for the items listed next?
pIC50 is defined as minus the log10 of a concentration measured in mol/L.

Identify pIC50 associated with the compound CC(C)C[C@H](NC(=O)[C@@H](NC(=O)N[C@H](C(=O)OC(C)(C)C)C(C)C)C(C)C)C(=O)[C@@]1(C)CO1
6.34

Give the value of pIC50 reported for the following: CC(C)C[C@H](NC(=O)[C@@H](NC(=O)N[C@H](C(=O)NCc1ccccc1)C(C)C)C(C)C)C(=O)[C@@]1(C)CO1 [Compound 7, Benzylamide-Val-urea-Val-Leu-EK]
6.28

Look up pIC50 of CC(C)C[C@H](NC(=O)[C@@H](NC(=O)N[C@H](C(=O)O)C(C)C)C(C)C)C(=O)[C@@]1(C)CO1 and report it.
5.85

Write down pIC50 measured for item CC(C)C[C@H](NC(=O)[C@@H](NC(=O)N[C@H](C(=O)OC(C)(C)C)C(C)C)C(C)C)C(=O)N[C@@H](CC(C)C)C(=O)[C@@]1(C)CO1
5.89

###

Biological target: proteasome β5 subunit (Homo sapiens, UniProt P28074)
Assay: Competition assay versus MVB003 in HEK293T lysate, β5 band
MEASURED ATTRIBUTE: IC50 (nM)
// return numeric value only (unit: nM, not printed)

Return reported IC50 for target or system proteasome β5 subunit (Homo sapiens, UniProt P28074), item CC(C)C[C@H](NC(=O)[C@@H](NC(=O)N[C@H](C(=O)O)C(C)C)C(C)C)C(=O)N[C@@H](CC(C)C)C(=O)[C@@]1(C)CO1 .
480

Under proteasome β5 subunit (Homo sapiens, UniProt P28074), report IC50 for CC(C)C[C@H](NC(=O)[C@@H](NC(=O)N[C@H](C(=O)NCc1ccccc1)C(C)C)C(C)C)C(=O)[C@@]1(C)CO1 [Compound 7, Benzylamide-Val-urea-Val-Leu-EK]
2900

Provide proteasome β5 subunit (Homo sapiens, UniProt P28074) IC50 reading for CC(C)C[C@H](NC(=O)[C@@H](NC(=O)N[C@H](C(=O)OC(C)(C)C)C(C)C)C(C)C)C(=O)N[C@@H](CC(C)C)C(=O)[C@@]1(C)CO1 .
16

###

Target: proteasome β2 subunit (Homo sapiens, UniProt Q99436)
Assay: Competition assay versus MVB003 in HEK293T lysate, β2 band
MEASURED ATTRIBUTE: IC50

Give IC50 for CCCCCCCCCCNC(=O)N[C@H](C(=O)N[C@@H](CC(C)C)C(=O)N[C@@H](CC(C)C)C(=O)[C@@]1(C)CO1)C(C)C
> 50 µM

Quick one: give measured IC50 for CC(C)C[C@H](NC(=O)[C@@H](NC(=O)N[C@H](C(=O)OC(C)(C)C)C(C)C)C(C)C)C(=O)N[C@@H](CC(C)C)C(=O)[C@@]1(C)CO1
0.69 µM

Fill in reported IC50 for this entry: CC(C)C[C@H](NC(=O)[C@@H](NC(=O)N[C@H](C(=O)O)C(C)C)C(C)C)C(=O)[C@@]1(C)CO1
> 50 µM

Output IC50 of CC(C)C[C@H](NC(=O)[C@@H](NC(=O)N[C@H](C(=O)OC(C)(C)C)C(C)C)C(C)C)C(=O)[C@@]1(C)CO1
> 50 µM

Kindly indicate its recorded IC50. Item: CC(C)C[C@H](NC(=O)[C@@H](NC(=O)N[C@H](C(=O)NCc1ccccc1)C(C)C)C(C)C)C(=O)[C@@]1(C)CO1 [Compound 7, Benzylamide-Val-urea-Val-Leu-EK]
> 50 µM
